Target: Angiotensin converting enzyme (ACE) (Homo sapiens, UniProt P12821)
Sequence (P12821 30-1306, species assumed): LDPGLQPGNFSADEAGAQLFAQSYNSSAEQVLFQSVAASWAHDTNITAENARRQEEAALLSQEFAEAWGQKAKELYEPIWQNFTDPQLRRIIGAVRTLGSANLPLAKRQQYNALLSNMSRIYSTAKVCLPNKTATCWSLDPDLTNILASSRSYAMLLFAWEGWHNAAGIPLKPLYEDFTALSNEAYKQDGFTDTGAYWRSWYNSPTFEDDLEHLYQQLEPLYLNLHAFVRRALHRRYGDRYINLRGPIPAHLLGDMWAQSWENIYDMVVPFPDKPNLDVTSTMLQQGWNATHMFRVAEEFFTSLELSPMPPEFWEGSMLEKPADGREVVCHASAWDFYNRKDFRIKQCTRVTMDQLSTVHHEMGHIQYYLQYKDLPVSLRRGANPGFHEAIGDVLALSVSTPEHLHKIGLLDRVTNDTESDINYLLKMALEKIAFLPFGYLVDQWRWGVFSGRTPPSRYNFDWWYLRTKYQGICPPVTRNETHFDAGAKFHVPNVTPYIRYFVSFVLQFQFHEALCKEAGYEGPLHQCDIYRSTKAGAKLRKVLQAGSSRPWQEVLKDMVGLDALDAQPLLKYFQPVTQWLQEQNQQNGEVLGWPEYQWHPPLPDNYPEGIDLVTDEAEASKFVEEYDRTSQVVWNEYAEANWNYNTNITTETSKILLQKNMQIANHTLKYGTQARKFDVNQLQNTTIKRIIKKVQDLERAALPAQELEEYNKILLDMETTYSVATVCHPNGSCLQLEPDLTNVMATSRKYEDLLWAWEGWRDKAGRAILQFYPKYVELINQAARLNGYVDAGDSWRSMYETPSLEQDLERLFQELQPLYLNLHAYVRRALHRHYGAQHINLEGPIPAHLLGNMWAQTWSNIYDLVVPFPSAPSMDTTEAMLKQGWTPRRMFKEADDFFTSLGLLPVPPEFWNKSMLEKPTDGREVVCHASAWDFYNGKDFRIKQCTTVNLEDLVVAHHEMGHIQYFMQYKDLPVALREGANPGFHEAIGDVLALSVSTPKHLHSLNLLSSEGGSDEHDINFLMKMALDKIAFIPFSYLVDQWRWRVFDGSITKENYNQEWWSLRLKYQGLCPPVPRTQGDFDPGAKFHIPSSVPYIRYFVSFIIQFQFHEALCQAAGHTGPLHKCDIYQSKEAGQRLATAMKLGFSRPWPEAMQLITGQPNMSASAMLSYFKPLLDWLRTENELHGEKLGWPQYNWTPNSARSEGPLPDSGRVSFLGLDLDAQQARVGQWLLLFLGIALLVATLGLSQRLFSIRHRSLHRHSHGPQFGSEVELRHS
Residues, ends and D or L forms follow the SMILES beside them.
value_kind: IC50 (µM)
Numbers only, in µM.

Query: Missing value: IC50, Angiotensin converting enzyme (ACE) (Homo sapiens, UniProt P12821), entry C[C@H](NC(=O)CN)C(=O)N[C@@H](C)C(=O)NCC(=O)NCC(=O)N[C@@H](C)C(=O)N[C@@H](Cc1ccccc1)C(=O)O [GAAGGAF] (H-GAAGGAF-OH) . Fill in?
Result: 14.2
